Reported IC50 by item:
Target Or System: human PD-1 (Jurkat-PD-1 cells) / PE-labeled human PD-L1-Ig (Homo sapiens, UniProt Q15116)
Construct: expressed in transfected cells; host or cells: Jurkat cell line over-expressing human PD-1
Sequence (Q15116 25-288): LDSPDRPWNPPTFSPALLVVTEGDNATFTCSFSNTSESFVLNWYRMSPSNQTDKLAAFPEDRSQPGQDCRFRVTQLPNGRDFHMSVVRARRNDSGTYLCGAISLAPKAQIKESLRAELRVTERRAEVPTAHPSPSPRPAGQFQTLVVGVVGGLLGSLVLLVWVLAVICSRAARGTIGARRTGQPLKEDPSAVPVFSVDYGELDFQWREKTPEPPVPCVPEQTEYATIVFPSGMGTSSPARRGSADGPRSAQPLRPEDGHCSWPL
Assay Protocol: Jurkat-PD-1 Cell Binding High-Content Screening Assay (CBA); Jurkat hPD1-PDL1 assay
Condition Summary: Jurkat cell line over-expressing human PD-1; PE-labeled PD-L1-Ig 20 nM final; compound incubated 2 hours at 37° C.; read-out: Jurkat HPD1-PDL1 IC50
Positions of bridges follow the written chain, without caps; N, C: chain ends. Non-standard residues stand in square brackets, D forms with d. Residues, ends and D or L forms follow the SMILES beside them. Phe(4-COOH) = N[C@@H](Cc1ccc(C(=O)O)cc1)C(=O)O; Bip = N[C@@H](Cc1ccc(-c2ccccc2)cc1)C(=O)O; NMeF = CN[C@@H](Cc1ccccc1)C(=O)O; NMeA = CN[C@@H](C)C(=O)O; Sar = CNCC(=O)O
Assay Endpoint: IC50 (nM)

>>> reported_value("CC(C)C[C@@H]1NC(=O)[C@H](Cc2c[nH]c3ccccc23)NC(=O)[C@H](CC(=O)O)NC(=O)[C@H](Cc2ccc(C(=O)O)cc2)NC(=O)[C@H](Cc2ccccc2)NC(=O)CSC[C@@H](C(=O)N[C@@H](C)C(N)=O)NC(=O)[C@H](CO)NC(=O)[C@H](C(C)C)NC(=O)[C@H](CC(C)C)NC(=O)[C@H](CC(N)=O)NC(=O)CN(C)C(=O)[C@H](C)N(C)C(=O)[C@H](C(C)C)NC(=O)[C@H](Cc2ccc(-c3ccccc3)cc2)NC1=O [Example 1066] ({CH2CO}-F[Phe(4-COOH)]DWL[Bip]V[NMeA][Sar]NLVSCA-NH2; thioether N-14)")
160
>>> reported_value("CC(C)C[C@@H]1NC(=O)[C@H](CCCNC(=N)N)NC(=O)[C@H](Cc2ccccc2)N(C)C(=O)[C@H](C)N(C)C(=O)[C@H](C(C)C)NC(=O)[C@H](Cc2ccc(-c3ccccc3)cc2)NC(=O)[C@H](C(C)C)NC(=O)[C@H](Cc2c[nH]c3ccccc23)NC(=O)[C@H](CC(=O)O)NC(=O)[C@H](Cc2ccc(O)cc2)NC(=O)[C@H](Cc2ccccc2)NC(=O)CSC[C@@H](C(=O)N[C@@H](C)C(N)=O)NC(=O)[C@H](CO)NC(=O)[C@H](C(C)C)NC1=O [Example 1115] ({CH2CO}-FYDWV[Bip]V[NMeA][NMeF]RLVSCA-NH2; thioether N-14)")
400
